# System: SF-295 CNS
# Procedure Text: NCI-60 one-dose screen, 48 h
# Cond: 10 µM unless noted
Compounds without any hit were thinned out: in the full panel of roughly 83,000, 20% have a hit. The source made the active and inactive calls. Rule for the calls: active = growth percent below 10; inactive = the rest.
Allowed answers: active, inactive

Use the examples below as a reference point.
[[record]]
compound = "O=C(Nc1ccc(Nc2ccncc2)cc1)c1ccc([N+](=O)[O-])cc1"
classification = "inactive"

[[record]]
compound = "C=C(C)C1CCC2(C(=O)O)CCC3(C)C(CCC4C5(C)CCC(OC(=O)NCc6ccccc6)C(C)(C)C5CCC43C)C12 (stereo not drawn)"
classification = "inactive"

[[record]]
compound = "CCN1c2ccccc2C(Cl)(c2ccc(N(C)C)cc2)c2ccccc21"
classification = "inactive"

[[record]]
compound = "C[n+]1cccc(NC(=O)c2ccc3ccc4ccc(C(=O)Nc5ccc[n+](C)c5)nc4c3n2)c1"
classification = "active"

[[record]]
compound = "C[C@H]1[C@H](C)CC[C@]2(C(=O)O)CC[C@]3(C)C(=CC[C@@H]4[C@@]5(C)C/C(=C/c6cccnc6)[C@H](O)C(C)(C)[C@@H]5CC[C@]43C)[C@H]12"
classification = "active"


Would you mind telling me which call this test gave Cn1cc(-c2noc(-c3cn(C)c4ncccc34)n2)c2cc(Cl)ccc21 ? inactive

Given Cc1cc(C)c(-c2cc(O)c(-c3c(C)cc(C)cc3C)cc2O)c(C)c1 , state the outcome it received in this test. inactive

# lookup: test call for O=C(Nc1ccc(Oc2ccc(F)cc2)c(Cl)c1)c1cccnn1 inactive

Per the records of this test, what outcome belongs to CC(C)C1=NOC(=O)C1=Cc1cn(-c2ccccc2)nc1-c1ccc(Cl)cc1 ? inactive

Query: recorded result category for CCN1CCN(CC(=O)Nc2nc3ccc(NCc4ccc(Cl)cc4)cc3s2)CC1 in this test inactive

Fill in: this test's call for Nc1cc(Cl)cc2cccnc12 is ___ inactive

// param item: COc1cc(Cl)cc(-c2nn(C(=O)NS(=O)(=O)c3ccccc3)cc2-c2ccncc2)c1 ; yields the recorded call inactive

Hi, sorry to bother you, what did the test record for CCCCCCCCCCCCCCCCCCNC(=S)N/N=C/c1ccc(OC)c(OC)c1 ? inactive

In this assay, the call recorded for COc1ccc2c(c1)C(C)Cc1c(Cl)ncnc1N2C (stereo not drawn) was what? inactive

Hi, sorry to bother you, what did the test record for O=C(N/N=C/c1ccc([N+](=O)[O-])cc1)c1ccc(Br)o1 ? inactive

Returns: the outcome recorded for CCN(CC)CCS(=O)(=O)CCNc1ccnc2cc(Cl)ccc12 in this assay. inactive

Kindly provide the recorded test outcome for the following compound: COC(=O)C(=Cc1ccccc1[N+](=O)[O-])C(=O)OC inactive

Assay outcome for CC(C)C1=NOC(=O)C1=Cc1cn(-c2ccccc2)nc1-c1ccccc1 : what was it? inactive

* * *

# Test system: KM12 colon
# Procedure Text: NCI-60 one-dose screen, 48 h
# Cond: 10 µM unless noted
# Method: Growth inhibition of the KM12 human tumor cell line is measured as a screen for anti-cancer activity. Cells are grown in 96 well plates and exposed to the test compound for 48 hours. Compounds are tested at a single concentration, which is 10^-5 M for most compounds. The reported endpoint is percent growth (GI% or GIPRCNT), where numbers from 0 - 100% represent growth inhibition, and numbers from -100% - 0 represent cell death. For example, a value of 40 represents 60% growth inhibition. […]
The panel holds about 83,000 compounds, 20% with a hit somewhere; the sample as a whole holds those more often. Active and inactive are the calls of the source. Rule for the calls: active = growth percent below 10; inactive = the rest.
Give one outcome, nothing more. List: active, inactive

Solved cases below.
[[record]]
compound = "COc1ccc(-c2ccc(NNC(=O)c3ccc(F)cc3)nn2)cc1OC"
target_under_test = "KM12 colon"
classification = "inactive"

[[record]]
compound = "CC(C)CCNCC(C)(C)O"
target_under_test = "KM12 colon"
classification = "inactive"

[[record]]
compound = "N=C(N)c1ccc(-c2ccc(-c3ccc(-c4cccs4)s3)s2)cc1F"
target_under_test = "KM12 colon"
classification = "inactive"

[[record]]
compound = "COc1cc(NCc2ccccc2O)c2ncccc2c1"
target_under_test = "KM12 colon"
classification = "inactive"

[[record]]
compound = "CC(C)c1ccc(C(=O)Nc2sc3c(c2C#N)CCC(=O)C3)cc1"
target_under_test = "KM12 colon"
classification = "active"

[[record]]
compound = "C[C@@H]1C[C@H]2C(=O)O[C@@H](C)[C@H](NC(=O)[C@H](Cc3cc(F)cc(F)c3)NC(=O)Nc3ccc(Cl)cc3F)C(=O)N3C[C@H](O)C[C@H]3C(=O)N3CCN(C)C[C@H]3C(=O)N[C@@H](C)C(=O)N2C1"
target_under_test = "KM12 colon"
classification = "inactive"

[[record]]
compound = "O=C(C[n+]1ccn(CC(OCc2ccc(Cl)cc2Cl)c2ccc(Cl)cc2Cl)c1)c1ccc(F)cc1 (centres undefined)"
target_under_test = "KM12 colon"
classification = "active"

[[record]]
compound = "Cc1cccc(C[C@H](NC(=O)Nc2ccc(Cl)cc2F)C(=O)N[C@@H]2C(=O)N3C[C@H](O)C[C@H]3C(=O)N3CCN(C)C[C@H]3C(=O)N[C@@H](C)C(=O)N3C[C@H](C)C[C@H]3C(=O)O[C@H]2C)c1"
target_under_test = "KM12 colon"
classification = "inactive"

[[record]]
compound = "CCOC(=O)c1cc(C(=O)c2ccc(OC)c(OC)c2)n2ccc(-c3ccccn3)cc12"
target_under_test = "KM12 colon"
classification = "inactive"

[[record]]
compound = "CCCCN(CC)CC(CC)Nc1cc(OC)cc2cccnc12 (centres undefined)"
target_under_test = "KM12 colon"
classification = "inactive"


// return assay outcome for C#CCNC(=O)CC[C@@H](C)[C@H]1CC[C@H]2[C@@H]3CC[C@@H]4CC(=O)CC[C@]4(C)[C@H]3CC[C@]12C active

Short answer needed: outcome of this test for COc1cc(-c2nc(SCCC(C)C)nc(Nc3ccccc3)c2C#N)cc(OC)c1OC ? inactive

Hi team, can someone confirm the assay call for Ic1ccc2[nH]cc(SSc3c[nH]c4ccc(I)cc34)c2c1 ? active
